Ref: PubChem BioAssay

TEST_NAME: binders of probe aFGF2 on microarray, primary screen, stem cell growth factor project, biochemical, small-molecule microarray, fluorescence 635/667 (AID 1067);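 note: measures binding of biotinylated aFGF2 protein to printed compounds on slides; z-score merges feature fluorescence and signal-to-noise across triplicate slides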
STUDY_CONDITIONS: higher = more signal
Classification field: T = composite z-score at or over 0.03; F = composite z-score under 0.03.

- COMPOUND: "CC(C)=CCN[C@H](CO)c1ccccc1"
  ASSIGNED_CATEGORY: "F"
- COMPOUND: "Cc1ccc([C@@H]2C[C@@H](Sc3ccccc3)[C@H](C(=O)O)CN2S(=O)(=O)c2ccc(C)cc2)cc1"
  ASSIGNED_CATEGORY: "T"
- COMPOUND: "CN1C=C(C(=O)OCCS(C)(=O)=O)C(C(=O)OCCS(C)(=O)=O)=CC(c2ccc(CO)cc2)=CC1C1CC1 (stereo not drawn)"
  ASSIGNED_CATEGORY: "F"
- COMPOUND: "CN1C(=O)C2C=CC(C(O)C#Cc3ccccc3)N(N3CCCCC3)C2C1=O (stereo not drawn)"
  ASSIGNED_CATEGORY: "T"
- COMPOUND: "N#Cc1ccc(NN2C(C(O)C(c3ccccc3)c3ccccc3)C=CC3C(=O)N(c4ccccc4)C(=O)C32)cc1 (stereo not drawn)"
  ASSIGNED_CATEGORY: "F"
- COMPOUND: "C=CCNC(=O)[C@H]1[C@@H]2C(=O)O[C@@H](c3ccccc3)[C@@H](c3ccccc3)N2[C@@H](c2ccccc2OCCO)[C@]12C(=O)Nc1ccc(C#CCC(C(=O)OC)C(=O)OC)cc12"
  ASSIGNED_CATEGORY: "T"
- COMPOUND: "O=C1C2C=CC(C(O)CCc3ccccc3)N(Nc3ccccc3F)C2C(=O)N1c1ccccc1 (stereo not drawn)"
  ASSIGNED_CATEGORY: "T"

----------
TEST_NAME: compound binding in COS7 lysate, probe aLAP1, primary screen, cell lysate, small-molecule microarray (AID 1124);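 note: lysate comes from COS7 cells expressing LAP1 and is applied at 0.3 µg/mL; score merges spot fluorescence near 667 nm with signal-to-noise over triplicate slides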
STUDY_CONDITIONS: probe aLAP1, fluorescence, higher = more signal
Reported composite z-score values are given for each entry in this list.
RECORDED_METRIC: composite z-score

- COMPOUND: "CN1C(=O)C2C=CC(C(O)C3CC=CCC3)N(N(c3ccccc3)c3ccccc3)C2C1=O (stereo not drawn)"
  RESULT: 0.52
- COMPOUND: "NC(=O)NCC#Cc1ccc2c(c1)[C@]1(C(=O)N2)[C@H](c2ccccc2OCCO)N2[C@H](c3ccccc3)[C@H](c3ccccc3)OC(=O)[C@H]2[C@@H]1C(=O)Nc1nc2ccccc2s1"
  RESULT: 0.0159
- COMPOUND: "COC(=O)[C@@]1(Cc2ccc(OC)cc2)[C@H]2c3cc(C(=O)N4CCCC4)n(Cc4ccc(O)c(OC)c4)c3C[C@H]2CN1C(=O)c1ccccc1"
  RESULT: 1.09
- COMPOUND: "CC(C)[Si]1(C(C)C)O[C@@H](c2ccccc2)c2cc(-c3ccc(-c4ccc(Cl)c(Cl)c4)o3)nc(-c3ccccc3)c21"
  RESULT: 0.0588
- COMPOUND: "C[N+](C)(C)CCCC[C@@H]1NC(=O)[C@H]2C[C@@H](C(=O)NCCCCCCNC(=O)CS)[C@@H](c3cccc(OCCO)c3)N2C1=O"
  RESULT: 0.864
- COMPOUND: "O=C1C[C@@](C(=O)NCCN2CCOCC2)(c2ccc([N+](=O)[O-])cc2)[C@@H](c2ccc(CO)cc2I)N1CC12CC3CC(CC(C3)C1)C2"
  RESULT: 0.811
- COMPOUND: "O=C1C[C@@](C(=O)NCCN2CCOCC2)(c2ccc([N+](=O)[O-])cc2)[C@@H](c2ccc(CO)cc2)N1CC12CC3CC(CC(C3)C1)C2"
  RESULT: 0.0978
- COMPOUND: "C[N+](C)(C)CCCCNC(=O)[C@@H]1C[C@@H]2C(=O)N[C@@H](Cc3ccccc3)C(=O)N2[C@@H]1c1cccc(OCCO)c1"
  RESULT: -0.15
- COMPOUND: "CC(C)NC(=O)[C@@H]1c2ccccc2C(=O)N(C2Cc3ccccc3C2)[C@H]1c1ccc(CO)cc1"
  RESULT: 0.781
- COMPOUND: "COCCOC(=O)N1C(=O)[C@@]2(c3cc(C#CC4(O)CCCCCC4)ccc31)[C@H](c1ccccc1OCCO)N1[C@H](c3ccccc3)[C@H](c3ccccc3)OC(=O)[C@H]1[C@@H]2C(=O)N1CCN(c2ncccn2)CC1"
  RESULT: 0.384
- COMPOUND: "COC(=O)C(CC#Cc1ccc2c(c1)[C@]1(C(=O)N2)[C@H](C(=O)Nc2nc3ccccc3s2)[C@H]2C(=O)O[C@H](c3ccccc3)[C@H](c3ccccc3)N2[C@@H]1c1ccc(O)cc1)C(=O)OC"
  RESULT: 0.301
- COMPOUND: "C=C[C@H](CO)NS(=O)(=O)c1ccc(Br)cc1"
  RESULT: 0.117
- COMPOUND: "C[C@@]1([C@@H](NC(=O)c2ccc(-c3ccccc3)cc2)c2ccc(Cl)cc2)C[C@H]1C1CCCCC1"
  RESULT: 0.0789
